REPORTED_CONDITIONS: 298.15 K; 101.33 kPa; Liquid; Sing-around technique in a fixed-path interferometer
# speed of sound per entry
The reply should be a number in m/s, with the unit left off.

# annotated cases, reported speed of sound shown
{"columns": ["COMPOUND", "speed of sound (m/s)"],
 "data": [
  ["CCCCn1cc[n+](C)c1.F[B-](F)(F)F [1-butyl-3-methylimidazolium tetrafluoroborate]", 1564.9],
  ["CCCC[n+]1ccn(C)c1.O=S(=O)([N-]S(=O)(=O)C(F)(F)F)C(F)(F)F", 1227.4],
  ["CCCCn1cc[n+](C)c1.COS(=O)(=O)[O-] [1-butyl-3-methylimidazolium methyl sulfate]", 1657.1]
]}

Moving on to the next compound.
Query (compound): CC(O)CO (centres undefined) [1,2-propanediol] ; field requested: speed of sound 1505.9

====

REPORTED_CONDITIONS: 318.15 K; 101.33 kPa; Liquid; Sing-around technique in a fixed-path interferometer
MEASURED_PARAMETER: speed of sound (m/s)
I only need the number, in m/s, no unit after it.

Observe how each entry below is paired with its result.
{"columns": ["MOLECULE", "speed of sound, m/s"],
 "data": [
  ["CCCCn1cc[n+](C)c1.COS(=O)(=O)[O-] [1-butyl-3-methylimidazolium methyl sulfate]", 1608.8],
  ["CC(O)CO (centres undefined)", 1452.7],
  ["CCCCn1cc[n+](C)c1.F[B-](F)(F)F [1-butyl-3-methylimidazolium tetrafluoroborate]", 1520]
]}

# ---- query molecule ----
Fill in: speed of sound of CCCC[n+]1ccn(C)c1.O=S(=O)([N-]S(=O)(=O)C(F)(F)F)C(F)(F)F is ___ 1184.1

====

REPORTED_CONDITIONS: 308.15 K; 101.33 kPa; Liquid; Vibrating tube method
// reported mass density for each item listed
Quick reminder: number only, in kg/m3, skip the unit.

Here is how some compounds turned out for mass density.
{"columns": ["COMPOUND", "UNIT", "mass density"],
 "data": [
  ["CCCCn1cc[n+](C)c1.COS(=O)(=O)[O-] [1-butyl-3-methylimidazolium methyl sulfate]", "kg/m3", 1201.89],
  ["CCCCn1cc[n+](C)c1.F[B-](F)(F)F [1-butyl-3-methylimidazolium tetrafluoroborate]", "kg/m3", 1194.23],
  ["CC(O)CO (centres undefined)", "kg/m3", 1024.55]
]}

# query: mass density of entry CCCC[n+]1ccn(C)c1.O=S(=O)([N-]S(=O)(=O)C(F)(F)F)C(F)(F)F 1426.42

====

REPORTED_CONDITIONS: 318.15 K; 101.33 kPa; Liquid; Vibrating tube method
Readings of mass density for the listed compounds
Note: unit kg/m3 is implicit; provide only the numeric part.

As a guide, the following entries are already answered.
{"columns": ["COMPOUND", "mass density, kg/m3"],
 "data": [
  ["CCCCn1cc[n+](C)c1.COS(=O)(=O)[O-] [1-butyl-3-methylimidazolium methyl sulfate]", 1195.2],
  ["CC(O)CO (centres undefined) [1,2-propanediol]", 1016.92]
]}

Param item = CCCCn1cc[n+](C)c1.F[B-](F)(F)F [1-butyl-3-methylimidazolium tetrafluoroborate] ; retrieve measured mass density. 1187.18

Look up mass density: CCCC[n+]1ccn(C)c1.O=S(=O)([N-]S(=O)(=O)C(F)(F)F)C(F)(F)F 1416.91

Provenance of the data: the NIST ThermoML archive (doi:10.1016/j.fluid.2015.12.007)
